Would you mind telling me the reported Purity (HPLC) % initial of each entry?
conditions-used: initial, before storage
Counter-ions that a name gives are not always drawn.

Answered cases to consult:
Exercise: Look up Purity (HPLC) % initial of C#CCN[C@@H]1CCc2ccccc21.O=C(O)[C@@H](O)[C@H](O)[C@H](O)[C@@H](O)C(=O)O [Galactarate, rasagiline galactarate] and report it.
Solution: 98.92%

Exercise: Look up Purity (HPLC) % initial of C#CCN[C@@H]1CCc2ccccc21.C#CCN[C@@H]1CCc2ccccc21.O=C(O)C(O)C(O)C(=O)O [Hemitartrate Form I, rasagiline L-hemitartrate] and report it.
Solution: 99.14%

Exercise: Look up Purity (HPLC) % initial of C#CCN[C@@H]1CCc2ccccc21 [Hydrochloride, rasagiline hydrochloride] and report it.
Solution: 99.18%

Would you be so kind as to report Purity (HPLC) % initial for each listed record?
1. C#CCN[C@@H]1CCc2ccccc21.O=C(O)[C@H]1OC(O)[C@H](O)[C@@H](O)[C@@H]1O [D-Glucuronate, rasagiline D-glucuronate]
2. C#CCN[C@@H]1CCc2ccccc21.O=C(O)[C@H](O)[C@@H](O)[C@H](O)[C@H](O)CO [Gluconate, rasagiline gluconate]
3. C#CCN[C@@H]1CCc2ccccc21.CS(=O)(=O)O [Mesylate, R-(+)-N-propargyl-1-aminoindan mesylate, reference compound]

Solution:
1: 86.00%; 2: 98.61%; 3: 99.58%

----------
conditions-used: initial, before storage
Where a name gives a salt, the structure may show the parent alone.
measured-attribute: XRD result Initial

Exercise: Look up XRD result Initial of C#CCN[C@@H]1CCc2ccccc21.C#CCN[C@@H]1CCc2ccccc21.O=C(O)C(O)C(O)C(=O)O [Hemitartrate Form I, rasagiline L-hemitartrate] and report it.
Solution: Form I

Exercise: Look up XRD result Initial of C#CCN[C@@H]1CCc2ccccc21.O=C(O)[C@H](O)[C@@H](O)[C@H](O)[C@H](O)CO [Gluconate, rasagiline gluconate] and report it.
Solution: amorphous

Exercise: Look up XRD result Initial of C#CCN[C@@H]1CCc2ccccc21.CS(=O)(=O)O [Mesylate, R-(+)-N-propargyl-1-aminoindan mesylate, reference compound] and report it.
Solution: Form I

Exercise: Look up XRD result Initial of C#CCN[C@@H]1CCc2ccccc21.O=C(O)[C@H]1OC(O)[C@H](O)[C@@H](O)[C@@H]1O [D-Glucuronate, rasagiline D-glucuronate] and report it.
Solution: amorphous

The record that follows has no XRD result Initial shown yet.
Exercise: Look up XRD result Initial of C#CCN[C@@H]1CCc2ccccc21 [Hydrochloride, rasagiline hydrochloride] and report it.
Solution: Form I

----------
conditions-used: 10 months, room temperature, ambient atmosphere
Structures can show the parent of a compound that is named as a salt.
measured-attribute: Purity (HPLC) 10 months later (%)
One number for each entry, in %.

Answered cases to consult:
Exercise: Look up Purity (HPLC) 10 months later of C#CCN[C@@H]1CCc2ccccc21.CS(=O)(=O)O [Mesylate, R-(+)-N-propargyl-1-aminoindan mesylate, reference compound] and report it.
Solution: 99.8

Exercise: Look up Purity (HPLC) 10 months later of C#CCN[C@@H]1CCc2ccccc21.O=C(O)[C@@H](O)[C@H](O)[C@H](O)[C@@H](O)C(=O)O [Galactarate, rasagiline galactarate] and report it.
Solution: 98.81

Exercise: Look up Purity (HPLC) 10 months later of C#CCN[C@@H]1CCc2ccccc21.O=C(O)[C@H](O)[C@@H](O)[C@H](O)[C@H](O)CO [Gluconate, rasagiline gluconate] and report it.
Solution: 96.36

Exercise: Look up Purity (HPLC) 10 months later of C#CCN[C@@H]1CCc2ccccc21.O=C(O)[C@H]1OC(O)[C@H](O)[C@@H](O)[C@@H]1O [D-Glucuronate, rasagiline D-glucuronate] and report it.
Solution: 50.64

Exercise: Look up Purity (HPLC) 10 months later of C#CCN[C@@H]1CCc2ccccc21.C#CCN[C@@H]1CCc2ccccc21.O=C(O)C(O)C(O)C(=O)O [Hemitartrate Form I, rasagiline L-hemitartrate] and report it.
Solution: 98.86

---
Exercise: Look up Purity (HPLC) 10 months later of C#CCN[C@@H]1CCc2ccccc21 [Hydrochloride, rasagiline hydrochloride] and report it.
Solution: 99.74

----------
conditions-used: 10 months, room temperature, ambient atmosphere
Where a name gives a salt, the structure may show the parent alone.
measured-attribute: Colour/Aspect 10 months later

Answered cases to consult:
Exercise: Look up Colour/Aspect 10 months later of C#CCN[C@@H]1CCc2ccccc21.C#CCN[C@@H]1CCc2ccccc21.O=C(O)C(O)C(O)C(=O)O [Hemitartrate Form I, rasagiline L-hemitartrate] and report it.
Solution: white powder

Exercise: Look up Colour/Aspect 10 months later of C#CCN[C@@H]1CCc2ccccc21 [Hydrochloride, rasagiline hydrochloride] and report it.
Solution: white powder

Exercise: Look up Colour/Aspect 10 months later of C#CCN[C@@H]1CCc2ccccc21.CS(=O)(=O)O [Mesylate, R-(+)-N-propargyl-1-aminoindan mesylate, reference compound] and report it.
Solution: white powder

Exercise: Look up Colour/Aspect 10 months later of C#CCN[C@@H]1CCc2ccccc21.O=C(O)[C@H](O)[C@@H](O)[C@H](O)[C@H](O)CO [Gluconate, rasagiline gluconate] and report it.
Solution: brown oil

The record that follows has no Colour/Aspect 10 months later shown yet.
Exercise: Look up Colour/Aspect 10 months later of C#CCN[C@@H]1CCc2ccccc21.O=C(O)[C@H]1OC(O)[C@H](O)[C@@H](O)[C@@H]1O [D-Glucuronate, rasagiline D-glucuronate] and report it.
Solution: brown oil

----------
experiment: physchem
conditions-used: water, thermodynamic from solid
Structures can show the parent of a compound that is named as a salt.
measured-attribute: Solubility

Exercise: Look up Solubility of C#CCN[C@@H]1CCc2ccccc21 [Hydrochloride Form II, rasagiline hydrochloride] and report it.
Solution: ~400 mg/mL

----------
conditions-used: 10 months, room temperature, ambient atmosphere
Where a name gives a salt, the structure may show the parent alone.
measured-attribute: XRD result 10 months later

Answered cases to consult:
Exercise: Look up XRD result 10 months later of C#CCN[C@@H]1CCc2ccccc21.O=C(O)[C@H](O)[C@@H](O)[C@H](O)[C@H](O)CO [Gluconate, rasagiline gluconate] and report it.
Solution: amorphous

Exercise: Look up XRD result 10 months later of C#CCN[C@@H]1CCc2ccccc21.C#CCN[C@@H]1CCc2ccccc21.O=C(O)C(O)C(O)C(=O)O [Hemitartrate Form I, rasagiline L-hemitartrate] and report it.
Solution: Form I

Exercise: Look up XRD result 10 months later of C#CCN[C@@H]1CCc2ccccc21.CS(=O)(=O)O [Mesylate, R-(+)-N-propargyl-1-aminoindan mesylate, reference compound] and report it.
Solution: Form I

Exercise: Look up XRD result 10 months later of C#CCN[C@@H]1CCc2ccccc21 [Hydrochloride, rasagiline hydrochloride] and report it.
Solution: Form I

The record that follows has no XRD result 10 months later shown yet.
Exercise: Look up XRD result 10 months later of C#CCN[C@@H]1CCc2ccccc21.O=C(O)[C@H]1OC(O)[C@H](O)[C@@H](O)[C@@H]1O [D-Glucuronate, rasagiline D-glucuronate] and report it.
Solution: amorphous
